The measured values listed here are drawn from patent US8507509B2.

ASSAY READOUT: melting point

Note down melting point recorded for C#Cc1cnc2c(C)cc(OC(SC)C(=O)NC(C)(C#N)C=NOC)cc2c1 (stereo not drawn)
172 to 174 °C

Using the record for CON=CC(C)(C#N)NC(=O)C(Oc1cc(C)c2ncc(I)cc2c1)SC (stereo not drawn) , state its measured melting point.
166 to 168 °C

Indicate its recorded melting point; the molecule in question is CCC(Oc1ccc2ncc(Br)cc2c1)C(=O)NC(C)(C#N)C=NOC (stereo not drawn)
152 to 155 °C

State, in one line, measured melting point of CON=CC(C)(C)NC(=O)C(Oc1ccc2ocnc2c1)SC (stereo not drawn)
95 to 96 °C

Write down melting point measured for item C#Cc1cnc2c(C)cc(OC(OC)C(=O)NC(C)(C)C=NOC)cc2c1 (stereo not drawn)
138 to 140 °C

For the molecule CON=CC(C)(C)NC(=O)C(OC)Oc1cc(C)c2ncc(I)cc2c1 (stereo not drawn) , give its reported melting point.
126 to 128 °C

Assign melting point to the following record: CON=CC(C)(C)NC(=O)C(OC)Oc1cc(C)c2ncc(Br)cc2c1 (stereo not drawn)
130 to 132 °C

# return recorded melting point for entry CON=CC(C)(C)NC(=O)C(OC)Oc1ccc2ncc(I)cc2c1 (stereo not drawn)
101 to 103 °C

Report measured melting point; entry is CON=CC(C)(C)NC(=O)C(Oc1cc(C)c2ncncc2c1)SC (stereo not drawn)
109 to 112 °C

* * *

ASSAY READOUT: melting point

Write down melting point measured for item CON=CC(C)(C)NC(=O)C(Oc1cc(Cl)c2ncc(Cl)cc2c1)SC (centres unmarked)
158 to 161 °C

Return the recorded melting point value; entry: CON=CC(C)(C#N)NC(=O)C(Oc1cc(C)c2ncc(Br)cc2c1)SC (centres unmarked)
156 to 159 °C

Name the recorded melting point of the item CON=CC(C)(C)NC(=O)C(Oc1cc(Cl)c2ccsc2c1)SC (centres unmarked) in your answer.
120 to 122 °C

Report melting point, nothing else, for this molecule: CON=CC(C)(C#N)NC(=O)C(Oc1ccc2ncc(C#C[Si](C)(C)C)cc2c1)SC (centres unmarked)
69 to 75 °C

Give the reported value of melting point for this record: CON=CC(C)(C#N)NC(=O)C(Oc1ccc2ncc(I)cc2c1)SC (centres unmarked)
59 to 64 °C

* * *

- Tested on: Phytophthora infestans
- METHOD DESCRIPTION: whole plant or invertebrate
- Type: in vivo
- CONDITION DESCRIPTION: in Solanum lycopersicum, foliar, 96 h, read-out: control of fungal infection, Phytophthora infestans
ASSAY READOUT: pest or weed control at 200 ppm

Return pest or weed control at 200 ppm (reported value) for this compound: C#Cc1cnc2ccc(OC(SC)C(=O)NC3(C=NO)CCC3)cc2c1 (centres unmarked)
≥ 60%

Name the recorded pest or weed control at 200 ppm of the item CON=C(C)C(C)(C)NC(=O)C(Oc1ccc2ncc(Br)cc2c1)SC (centres unmarked) in your answer.
≥ 60%

// Input: CON=C(C)CC(C)(C)NC(=O)C(Oc1ccc2ncc(Br)cc2c1)SC (centres unmarked) . Output its pest or weed control at 200 ppm only.
≥ 60%

Determine its reported pest or weed control at 200 ppm: CCON=CC(C)(C)NC(=O)C(Oc1ccc2ncc(Br)cc2c1)SC (centres unmarked)
≥ 60%

Fill in reported pest or weed control at 200 ppm for this entry: CCON=CC(C)(C)NC(=O)C(Oc1cc(C)c2ncc(I)cc2c1)SC (centres unmarked)
≥ 60%

Indicate the recorded pest or weed control at 200 ppm value for this compound: CCC(Oc1ccc2ncc(Br)cc2c1)C(=O)NC(C)(C)C=NO (centres unmarked)
≥ 60%

Please supply the value of reported pest or weed control at 200 ppm for the item CON=CC(C)(C#N)NC(=O)C(Oc1cc(C)c2ncc(Br)cc2c1)SC (centres unmarked)
≥ 60%

Name the recorded pest or weed control at 200 ppm of the compound listed here: CON=CC(C)(C)NC(=O)C(Oc1cc(C)c2ncc(Br)cc2c1)SC (centres unmarked)
≥ 60%
